Test system: RPMI-8226 leukemia
PROTOCOL: NCI-60 one-dose screen, 48 h (100 = growth as untreated, 0 = no growth, -100 = all killed)
MEASUREMENT_CONTEXT: 10 µM unless noted
About 83,000 compounds went through this panel and 20% of them were active in at least one assay; those are over-represented in the sample as a whole.
We label by threshold. Values of growth strictly beneath 70% are true. Values of 70% and up are false.

Worked examples follow.
INSERT INTO measurements (compound, system_name, group_label) VALUES
  ('COc1cc2nc(Nc3cccc(Cl)c3)nc(N)c2cc1OC', 'RPMI-8226 leukemia', 'true'),
  ('NC1=Nc2cc(OCCCN3Cc4ccccc4C3)c(OCC3CC3)cc2C12CCCC2', 'RPMI-8226 leukemia', 'true'),
  ('CCN1/C(=C/C=C/c2n(-c3ccccc3)c3ccc(-c4nc5ccccc5s4)cc3[n+]2CC)N(c2ccccc2)c2ccc(-c3nc4ccccc4s3)cc21', 'RPMI-8226 leukemia', 'true');

Quick check: does COC1CCC(N2C(=O)CNc3ncc(-c4ccc(C(C)(C)O)nc4)nc32)CC1 (stereo not given) have growth under 70%? true

CCNCCNc1cc(-c2ccc(Cl)c(Cl)c2)c(C#N)c2nc3ccccc3n12 ? true

CC(C)=CCc1cc2c(cc1O)C1=C(C(=O)C3=C(NCCS3(=O)=O)C1=O)C(C=C(C)C)O2 (stereo not given) ? true

* * *

Test system: A549/ATCC NSCLC
PROTOCOL: NCI-60 one-dose screen, 48 h (100 = growth as untreated, 0 = no growth, -100 = all killed)
MEASUREMENT_CONTEXT: 10 µM unless noted
Compounds without any hit were thinned out: in the full panel of roughly 83,000, 20% have a hit.
# thresholds on growth define classes: class A: < 10%; class B: ≥ 10% and < 50%; class C: ≥ 50%

Worked examples follow.
INSERT INTO results (compound, group_label) VALUES
  ('O=C1/C(=C\c2cccc(OCCCCCOc3ccc(Cl)cc3)c2)N=C2SCCCN12', 'class B'),
  ('C[C@@H](Oc1cc(-n2cnc3ccc(CN4CCN(C)CC4)cc32)sc1C(N)=O)c1ccccc1C(F)(F)F', 'class A'),
  ('CNC(=O)c1cc(Oc2cccc3nc(Nc4ccc(Cl)c(F)c4)ccc23)ccn1', 'class C');

Bin this entry: O=C(COc1cccc(/C=C2\Cc3ccc(Cl)cc3C2=O)c1)Nc1nccs1 class C

O=c1nc2c(-c3nc4ccccc4s3)n[nH]n2c2sc3c(c12)CCCC3 ? class C

CC(C)(C)c1cnc(CSc2cnc(NC(=O)C3CCNCC3)s2)o1 ? class A

CCCc1cc2cc(-n3nc(C)c4c3CC(C)(C)CC4=O)cc(NC3CCC(O)CC3)c2c(=O)[nH]1 (configuration not stated) ? class B

Cc1cc2c(-c3nc4ccccn4c3NC3CCCCC3)c(O)c(O)cc2c(O)c1-c1c(C)cc2c(-c3nc4ccccn4c3NC3CCCCC3)c(O)c(O)cc2c1O ? class B

O=C(CNc1nc(-c2ccc(Cl)cc2)cs1)Nc1ccc(-c2nc3ccccc3s2)cc1 ? class C

C=CC[n+]1c(/C=C2\Sc3ccccc3N2C)sc(-c2ccccc2)c1-c1ccccc1 ? class B

C=C1C(=O)O[C@H]2[C@H]1CC/C(C=Nc1c(N)cc(C(F)(F)F)cc1C(F)(F)F)=C\CC[C@@]1(C)O[C@@H]21 ? class B

NC1=Nc2cc(OCCCN3Cc4ccccc4C3)c(OCC3CC3)cc2C12CCCC2 ? class C

COc1cc2c(cc1O)c(=O)n(CCN(C)C)c1c3cc4c(cc3ncc21)OCO4 ? class A

COC(=O)[C@H](Cc1ccccc1)NC(=O)[C@@H](OC)[C@@H]1Cc2cc3cc(OC4CC(OC5CC(O)C(O)C(C)O5)C(O)C(C)O4)c(C)c(O)c3c(O)c2C(=O)[C@H]1OC1CC(OC2CC(OC3CC(C)(O)C(O)C(C)O3)C(O)C(C)O2)C(O)C(C)O1 (some centres not stated) ? class A

Cc1cc(Nc2cc(N3CCN(C)CC3)nc(Sc3ccc(NC(=O)C4CC4)cc3)n2)n[nH]1 ? class B

O=C(Cc1ccccc1)Nc1nnc(NC2CCN(c3nnc(NC(=O)Cc4ccccc4)s3)CC2)s1 ? class B

Brc1ccc([I+]c2ccc(Br)cc2)cc1 ? class B

Sourced from PubChem BioAssay (NCI)
